# assayed target: Ryanodine receptor 1 (Oryctolagus cuniculus)
# experimental protocol: Displacement of [3H]ryanodine from ryanodine receptor(ryr) of rabbit skeletal muscle
quantity kind: Relative activity

What the record says about CONC1C(C)CCC2(O)C3(C)CC4(O)OC12C1(O)C3(O)C(OC(=O)c2ccc[nH]2)C(O)(C(C)C)C41C (stereo not given) : Relative activity is 68

Data point: CC(C)C1(O)C(OC(=O)c2ccc[nH]2)C2(O)C3(C)CC4(O)OC5(CCCCC35O)C2(O)C41C (stereo not given) ; Relative activity = 6.5

Reported Relative activity of C=C1CCC2(O)C3(C)CC4(O)OC2(C1OC(=O)c1ccccc1)C1(O)C3(O)C(OC(=O)c2ccc[nH]2)C(O)(C(C)C)C41C (stereo not given) : 3.9

Entry CC1CCC2(O)C3(C)CC4(O)OC2(NC1=O)C1(O)C3(O)C(OC(=O)c2ccc[nH]2)C(O)(C(C)C)C41C (stereo not given) — recorded Relative activity = 42

Reported Relative activity for CC1CCC2(O)C3(C)CC4(O)OC2(C1N)C1(O)C3(O)C(OC(=O)c2ccc[nH]2)C(O)(C(C)C)C41C (stereo not given) was 68

Lab book: Relative activity of CC1=CCC2(O)C3(C)CC4(O)OC2(C1O)C1(O)C3(O)C(OC(=O)c2ccc[nH]2)C(O)(C(C)C)C41C (stereo not given) noted as 26

Just so you know, measured Relative activity for CC1CCC2(O)C3(C)CC4(O)OC2(C1O)C1(O)C3(O)C(OC(=O)c2ccc[nH]2)C(O)(C(C)C)C41C (stereo not given) came out at 97

Reported Relative activity for CC(C)[C@@]1(O)[C@@H](OC(=O)c2cc[nH]c2)[C@@]2(O)[C@]3(C)C[C@@]4(O)O[C@@]5([C@H](O)[C@@H](C)CC[C@]35O)[C@@]2(O)[C@@]41C was 100

For reference, reported Relative activity for CO/N=C1\C(C)CCC2(O)C3(C)CC4(O)OC12C1(O)C3(O)C(OC(=O)c2ccc[nH]2)C(O)(C(C)C)C41C (stereo not given) stands at 13

Input CC(C)C1(O)C(OC(=O)c2ccc[nH]2)C2(O)C3(C)CC4(O)OC5(CC(O)CCC35O)C2(O)C41C (stereo not given) . Output Relative activity: 0.2
